All figures here come from ChEMBL document CHEMBL4038295.

System: Thoracic aorta
Assay: Vasorelaxing effect in endothelium-intact Wistar rat thoracic aorta ring assessed as inhibition of phenylephrine-stimulated contraction
Format: functional, tissue-based
pIC50: −log10 of the molar value.
VALUE_TYPE: pIC50

entry_smiles=CCC[C@H](CC(=O)O)c1c2c(c(O)c3c1O[C@H](C)[C@@H](C)C3=O)C=CC(C)(C)O2 observed_value=4.86
entry_smiles=CC[C@H](CC(=O)O)c1c2c(c(O)c3c1O[C@H](C)[C@@H](C)C3=O)C=CC(C)(C)O2 observed_value=4.98
entry_smiles=CCCC[C@H](CC(=O)O)c1c2c(c(O)c3c1O[C@H](C)[C@H](C)C3=O)C=CC(C)(C)O2 observed_value=4.92

I. C[C@H](CC(=O)O)c1c2c(c(O)c3c1O[C@H](C)[C@H](C)C3=O)C=CC(C)(C)O2
II. CC[C@H](CC(=O)O)c1c2c(c(O)c3c1O[C@H](C)[C@H](C)C3=O)C=CC(C)(C)O2
III. CCC[C@H](CC(=O)O)c1c2c(c(O)c3c1O[C@H](C)[C@H](C)C3=O)C=CC(C)(C)O2
Write the entries in order, lowest recorded pIC50 first. Reply format: the labels, ordered as requested.
III, I, II
